Target: T1, cynomolgus monkey IL-33 expressed with a C-terminal hexahistidine tag (cynomolgus monkey)
T1 construct: also called MfIL-33-6His; Mf-IL-33-6His
T1 chain: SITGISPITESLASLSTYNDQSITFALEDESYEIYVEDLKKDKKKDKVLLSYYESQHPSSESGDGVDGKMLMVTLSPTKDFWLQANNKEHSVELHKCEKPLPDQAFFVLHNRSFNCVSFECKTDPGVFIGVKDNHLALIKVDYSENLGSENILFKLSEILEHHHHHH
Test: BLI; mAb-1 on captured MfIL-33-6His
Measurement Label: mAb-1 Binding (nm)
Provide only the numeric value, understood in nm.

Here are 3 binders together with their reported answers.
# Binder, mAb-1 Binding (nm)
data = [
    ("H4H9629P (antibody, human IgG4, V domains shown, Human IgG4 Fc (H4H)) VH: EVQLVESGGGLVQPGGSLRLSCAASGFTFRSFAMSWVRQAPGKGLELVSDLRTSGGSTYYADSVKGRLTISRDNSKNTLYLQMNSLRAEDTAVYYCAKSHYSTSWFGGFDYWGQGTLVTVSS VL: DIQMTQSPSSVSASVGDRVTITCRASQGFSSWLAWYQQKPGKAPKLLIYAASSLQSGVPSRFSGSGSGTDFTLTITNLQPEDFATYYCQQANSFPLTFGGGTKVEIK", 0.72),
    ("H4H9660P (antibody, human IgG4, V domains shown, Human IgG4 Fc (H4H)) VH: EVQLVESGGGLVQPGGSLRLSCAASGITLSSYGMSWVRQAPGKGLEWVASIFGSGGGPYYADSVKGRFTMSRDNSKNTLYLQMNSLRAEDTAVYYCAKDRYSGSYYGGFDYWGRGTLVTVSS VL: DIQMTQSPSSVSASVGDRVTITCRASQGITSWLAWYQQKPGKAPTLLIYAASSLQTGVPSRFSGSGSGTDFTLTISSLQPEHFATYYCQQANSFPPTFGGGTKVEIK", 0.58),
    ("H4H9633P (antibody, human IgG4, V domains shown, Human IgG4 Fc (H4H)) VH: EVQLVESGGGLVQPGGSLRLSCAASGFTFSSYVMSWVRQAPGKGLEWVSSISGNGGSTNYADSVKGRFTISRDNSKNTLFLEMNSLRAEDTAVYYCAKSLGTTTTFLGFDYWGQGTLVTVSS VL: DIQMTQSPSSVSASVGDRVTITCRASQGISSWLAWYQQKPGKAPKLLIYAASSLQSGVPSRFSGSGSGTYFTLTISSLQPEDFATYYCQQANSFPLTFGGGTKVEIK", 0.64),
]

Query: Which mAb-1 Binding (nm) reading was recorded for the binder H4H9671P (antibody, human IgG4, V domains shown, Human IgG4 Fc (H4H)) VH: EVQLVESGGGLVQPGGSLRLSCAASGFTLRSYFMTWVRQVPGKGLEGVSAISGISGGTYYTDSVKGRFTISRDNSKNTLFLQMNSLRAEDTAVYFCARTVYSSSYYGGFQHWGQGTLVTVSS VL: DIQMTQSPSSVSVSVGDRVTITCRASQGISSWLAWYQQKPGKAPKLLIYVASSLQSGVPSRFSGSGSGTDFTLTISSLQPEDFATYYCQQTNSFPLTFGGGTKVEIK ?
Reply: 0.58

Query: Same question, H4H9663P (antibody, human IgG4, V domains shown, Human IgG4 Fc (H4H)) VH: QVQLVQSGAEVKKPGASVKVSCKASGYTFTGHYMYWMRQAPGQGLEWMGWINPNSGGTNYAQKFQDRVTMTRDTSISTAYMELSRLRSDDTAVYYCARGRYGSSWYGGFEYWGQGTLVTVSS VL: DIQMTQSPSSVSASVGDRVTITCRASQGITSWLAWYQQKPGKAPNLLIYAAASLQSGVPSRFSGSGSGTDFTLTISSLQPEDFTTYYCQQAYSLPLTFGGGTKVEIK this time
Reply: 0.54

Query: And for H4H9676P (antibody, human IgG4, V domains shown, Human IgG4 Fc (H4H)) VH: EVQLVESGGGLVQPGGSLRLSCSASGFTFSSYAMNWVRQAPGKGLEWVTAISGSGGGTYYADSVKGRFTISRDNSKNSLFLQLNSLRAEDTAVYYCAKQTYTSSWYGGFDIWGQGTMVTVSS VL: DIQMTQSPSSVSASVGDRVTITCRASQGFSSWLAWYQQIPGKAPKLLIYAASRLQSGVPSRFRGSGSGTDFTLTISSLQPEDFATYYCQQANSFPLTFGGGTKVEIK ?
Reply: 0.62

Query: Moving on to the next binder: H4H9662P (antibody, V domains shown, Human IgG4 Fc (H4H)) VH: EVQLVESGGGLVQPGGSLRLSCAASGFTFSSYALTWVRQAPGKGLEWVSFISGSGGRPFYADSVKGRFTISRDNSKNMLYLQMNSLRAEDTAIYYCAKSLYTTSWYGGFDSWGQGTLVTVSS VL: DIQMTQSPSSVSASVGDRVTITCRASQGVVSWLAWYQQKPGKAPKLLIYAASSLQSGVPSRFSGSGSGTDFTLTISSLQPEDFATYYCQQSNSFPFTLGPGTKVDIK
Reply: 0.56

Query: What do you have for H4H9670P (antibody, V domains shown, Human IgG4 Fc (H4H)) VH: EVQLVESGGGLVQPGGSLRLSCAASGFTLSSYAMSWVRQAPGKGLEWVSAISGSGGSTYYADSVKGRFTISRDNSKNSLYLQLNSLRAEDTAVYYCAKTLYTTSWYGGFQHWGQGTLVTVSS VL: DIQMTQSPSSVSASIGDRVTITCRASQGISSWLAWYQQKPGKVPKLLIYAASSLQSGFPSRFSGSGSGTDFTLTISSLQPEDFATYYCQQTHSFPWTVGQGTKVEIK ?
Reply: 0.56

Query: Also need H1M9566N (antibody, mouse IgG1, V domains shown, Human variable domains, mouse IgG1 Fc (H1M)) VH: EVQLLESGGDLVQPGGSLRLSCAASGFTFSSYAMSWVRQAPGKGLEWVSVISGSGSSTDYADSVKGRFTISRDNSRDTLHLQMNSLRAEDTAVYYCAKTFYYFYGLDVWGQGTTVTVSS VL: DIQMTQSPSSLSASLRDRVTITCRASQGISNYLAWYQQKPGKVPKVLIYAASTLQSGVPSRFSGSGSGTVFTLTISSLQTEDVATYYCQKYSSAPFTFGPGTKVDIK , thanks.
Reply: 0.58

Query: Also, H1M9568N (antibody, mouse IgG1, V domains shown, Human variable domains, mouse IgG1 Fc (H1M)) VH: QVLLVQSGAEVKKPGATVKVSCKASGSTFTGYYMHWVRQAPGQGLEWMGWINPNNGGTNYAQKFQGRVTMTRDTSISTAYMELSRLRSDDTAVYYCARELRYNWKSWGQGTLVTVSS VL: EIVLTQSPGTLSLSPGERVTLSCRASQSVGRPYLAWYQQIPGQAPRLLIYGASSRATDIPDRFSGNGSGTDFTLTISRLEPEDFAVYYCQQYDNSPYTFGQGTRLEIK please.
Reply: 0.5
